Listing: pIC50 of selected molecules
Tested on: Calpain activity in SH-SY5Y cells
Assay: SH-SY5Y + AMC fluorescence assay (Suc-LLVY-AMC substrate)
Type: cell-based
Details: read-out: SH-SY5Y + AMC IC50
pIC50: −log10 of the molar value.

Examples from the recorded data:
# MOLECULE, MEASUREMENT_TARGET, VALUE
data = [
    ("Cc1cc(C(=O)NC(Cc2ccccc2)C(=O)C(=O)NC2CC2)n(-c2ccccn2)n1 (stereo not drawn)", "Calpain activity in SH-SY5Y cells", "> 5.00"),
    ("Cc1nc(-c2ccccc2)c(C(=O)N[C@@H](Cc2ccccc2)C(O)C(N)=O)o1 (stereo partly drawn)", "Calpain activity in SH-SY5Y cells", "< 4.60"),
]

Please examine the following record next.
## Task Provide one value: measured pIC50 of Cc1cc(C(=O)NC(Cc2ccccc2)C(=O)C(N)=O)n(-c2ccc(CNC(=O)c3ccc(F)cc3)cc2)n1 (stereo not drawn)
## Result < 4.60
